Test system: von Hippel-Lindau disease tumor suppressor/Epidermal growth factor receptor (Homo sapiens), P00533+P40337 [L858R,T790M]
experiment_description: Protac activity at VHL/[…] cells assessed as induction of EGFR degradation at 1000 nM incubated for 24 hrs by Western blot analysis relative to control
Format: cell-based
endpoint_label: Activity (%)
Respond numerically; units are % and should not be typed.

# annotated cases, reported Activity shown
COc1cc(N(C)CCN(C)C)c(NC(=O)/C=C/CN(C)CCCCCCCC(=O)N[C@H](C(=O)N2C[C@H](O)C[C@H]2C(=O)NCc2ccc(-c3scnc3C)cc2)C(C)(C)C)cc1Nc1nccc(-c2cn(C)c3ccccc23)n1
25
COc1cc(N(C)CCN(C)C)c(NC(=O)/C=C/CN(C)CCCCCCCCCC(=O)N[C@H](C(=O)N2C[C@H](O)C[C@H]2C(=O)NCc2ccc(-c3scnc3C)cc2)C(C)(C)C)cc1Nc1nccc(-c2cn(C)c3ccccc23)n1
30
COc1cc(N(C)CCN(C)C)c(NC(=O)/C(C#N)=C/C(C)(C)NC(=O)CCCCCCC(=O)N[C@H](C(=O)N2C[C@H](O)C[C@H]2C(=O)NCc2ccc(-c3scnc3C)cc2)C(C)(C)C)cc1Nc1nccc(-c2cn(C)c3ccccc23)n1
26
COc1cc(N(C)CCN(C)C)c(NC(=O)/C=C/CN(C)CCN(C)C(=O)CCCCCC(=O)N[C@H](C(=O)N2C[C@H](O)C[C@H]2C(=O)NCc2ccc(-c3scnc3C)cc2)C(C)(C)C)cc1Nc1nccc(-c2cn(C)c3ccccc23)n1
25
C=CC(=O)Nc1cc(Nc2nccc(-c3cn(C)c4ccccc34)n2)c(OC)cc1N(CCCCCCC(=O)NCCOCCOCC(=O)N[C@H](C(=O)N1C[C@H](O)C[C@H]1C(=O)NCc1ccc(-c2scnc2C)cc1)C(C)(C)C)CCN(C)C
25

// Activity lookup, key: COc1cc(N(C)CCN(C)C)c(NC(=O)/C=C/CN(C)CCN(C)C(=O)CCCCCCC(=O)N[C@H](C(=O)N2C[C@H](O)C[C@H]2C(=O)NCc2ccc(-c3scnc3C)cc2)C(C)(C)C)cc1Nc1nccc(-c2cn(C)c3ccccc23)n1 24

Here is the next molecule: C=CC(=O)Nc1cc(Nc2nccc(-c3cn(C)c4ccccc34)n2)c(OC)cc1N(CCCCCCC(=O)N[C@H](C(=O)N1C[C@H](O)C[C@H]1C(=O)NCc1ccc(-c2scnc2C)cc1)C(C)(C)C)CCN(C)C 34

Source listed as ChEMBL document CHEMBL5154782.
